biological target: 5C3-RAb; experiment: non-competitive SPR with immobilized 5C3-RAb; details: SPR, 1:1 binding kinetic model; read-out: KD (dissociation equilibrium constant)
pKd: −log10 of the molar value.
assayReadout: pKd

- CN/C(=N\[N+](=O)[O-])NCc1cnc(Cl)s1: 8.10

---

test system: 5C3-RAb; test: THC-H-OVA-based heterologous ic-ELISA with 5C3-RAb; type: binding, mouse; settings: ic-ELISA; IC50 of clothianidin / IC50 of analogue × 100%
assayReadout: cross-reactivity rate

- CCN(Cc1ccc(Cl)nc1)/C(=C\[N+](=O)[O-])NC: <0.1%
- CN1COCN(Cc2cnc(Cl)s2)/C1=N/[N+](=O)[O-]: <0.1%
- O=[N+]([O-])/N=C1\NCCN1Cc1ccc(Cl)nc1: <0.1%
- O=[N+]([O-])/N=C1/NCCN1Cc1cnc(Cl)s1: <0.1%
- CN/C(=N/CC1CCOC1)N[N+](=O)[O-] (centres unmarked): 56%
- C/C(=N\C#N)N(C)Cc1ccc(Cl)nc1: <0.1%
- N#C/N=C1\SCCN1Cc1ccc(Cl)nc1: <0.1%
- CN/C(=N\[N+](=O)[O-])NCc1cnc(Cl)s1: 100%

---

target: 1F7-RAb; experiment: non-competitive SPR with immobilized 1F7-RAb; settings: SPR, 1:1 binding kinetic model; read-out: KD (dissociation equilibrium constant)
pKd: −log10 of the molar value.
assayReadout: pKd

* CN/C(=N\[N+](=O)[O-])NCc1cnc(Cl)s1 [clothianidin] | 8.49
